# system: KDR
# assay-explanation: KD, B (μM)
Here, each record is paired with measured pKd data.
# log scale: pKd equals minus log10 of the concentration in mol/L

- GDSRVCWEDSWGGEVCFRYGGGK [compound 372]: 7.22
- GDSRVCWEDSWGGEVCFGGGK [compound 369]: 5.89

Given the entry VCWEDSWGGEVCFGGGK [compound 368] , report its measured pKd.
6.04

Given the entry SRVCWEDSWGGEVCFRYGGGGK [compound 371] , report its measured pKd.
7.46
